# credit: patent US11708344B2

- Test system: HBeAg (surrogate marker for cccDNA) in HepDES19 cells
- Protocol notes: Engineered HepDES19 primary screen assay (HBeAg ELISA)
- Type: cell-based, HBV
- Test parameters: read-out: IC50 (HBeAg level, HepDES19 primary screen assay); HepDES19 cells, 5 days compound incubation, HBeAg ELISA
pIC50: −log10 of the molar value.
Respond with Criterion met for pIC50 values of 6 and above, Criterion not met for values below.

Please review the following examples before continuing.
Cc1cc(-c2cc(=O)c3cccc(Cl)c3o2)c(OC2CC(C(=O)O)C2)cc1Cl (stereo in doubt) [Example B012-B]	Criterion not met
O=c1cc(-c2ccc(Br)cc2OC[C@H]2C[C@H](C(=O)O)C2)oc2c(Cl)cccc12 [Example B025-B]	Criterion not met
O=C(O)[C@H]1CCCN1C(=O)COc1cc(C(F)(F)F)ccc1-c1cc(=O)c2cccc(Cl)c2o1 [Example A081]	Criterion met
O=c1cc(-c2ccccc2OCCO[C@H]2C[C@H](C(=O)O)C2)oc2c(Br)cccc12 [Example C046-B]	Criterion met

Task: Check this molecule for pIC50 at or above 6: O=C(O)C1CC(COc2cc(Br)ccc2-c2cc(=O)c3cccc(Cl)c3o2)C1 (stereo in doubt) [Example B025-A]
Output: Criterion not met
